- assay-system: TNF-alpha (Homo sapiens, UniProt P01375 P01375:77-233)
- Sequence (P01375 77-233, one chain of several): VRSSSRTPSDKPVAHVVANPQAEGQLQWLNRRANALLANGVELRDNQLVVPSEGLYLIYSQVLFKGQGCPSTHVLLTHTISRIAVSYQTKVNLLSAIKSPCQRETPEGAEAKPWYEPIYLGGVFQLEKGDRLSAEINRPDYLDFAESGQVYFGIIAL
- assay-explanation: filter; class I
- measurement-parameters: tags: Genzyme or R&D Systems; chain copies: 3 inferred
property-label: pKd
// scale note: pKd = -log10(conc_M); give the bare number

>  <binder>
TNF 8A (ssRNA) RNA: GGGAGCUCAGAAUAAACGCUCAACAGUGGAGGCUGUCCAAACCCACCCACCCCUUCGACAUGAGGCCCGGAUCCGGC

>  <property-label>
pKd

>  <result>
6.11

$$$$
>  <binder>
TNF 23A (ssRNA) RNA: GGGAGCUCAGAAUAAACGCUCAACCUCAUCCUCGCACGCCAUCGCCUGAACCGUUCGACAUGAGGCCCGGAUCCGGC

>  <property-label>
pKd

>  <result>
7.28

$$$$
>  <binder>
TNF 7C (ssRNA) RNA: GGGAGCUCAGAAUAAACGCUCAACAGGUGGCACCGCCCUUCCAACACGGUGCGUUCGACAUGAGGCCCGGAUCCGGC

>  <property-label>
pKd

>  <result>
6.53

$$$$

Fill in: pKd of TNF 3A (ssRNA) RNA: GGGAGCUCAGAAUAAACGCUCAAGAUCGACGCAUCGAGUCGCCUCAUCGCUCCUUCGACAUGAGGCCCGGAUCCGGC is ___
6.87
